Assay read-out IC50 on human GST-DYRK1A (Homo sapiens, UniProt Q13627); records merged from the literature.

Record excerpt, results attached:
In [3]: df
Out[3]:
                                   compound                        measurement_target     assay_value
0  CC#CC1CNC(=O)N1c1nc2c3c(ccc2s1)OCCN3CCN1CCN(C)CC1 (racemic)  human GST-DYRK1A (Homo sapiens, UniProt Q13627)       ≥ 1000 nM
1  CCCNc1nc(Nc2ccc(C(=O)N3CCOCC3)c3c2OCCO3)nc2[nH]cc(C(F)(F)F)c12  human GST-DYRK1A (Homo sapiens, UniProt Q13627)  301 to 1000 nM
2  CNc1cc(Nc2ccc(C(=O)N3CCOCC3)c3c2OCCO3)nc2[nH]ccc12  human GST-DYRK1A (Homo sapiens, UniProt Q13627)  301 to 1000 nM

Shifting focus to the compound that follows.
Reported IC50 of COc1cc(P2(=O)CCN(C3CC3)CC2)ccc1Nc1cc(NC2CC2)c2c(C(F)(F)F)c[nH]c2n1 : 301 to 1000 nM

###

Assay read-out IC50 on human GST-DYRK1A (Homo sapiens); records merged from the literature.

Record excerpt, results attached:
                                   compound     assay_value
0  O=C(c1ccc(Nc2nc(NC3CCCC3)c3cc[nH]c3n2)c2c1OCCO2)N1CCOCC1  301 to 1000 nM
1  Cc1nc(NC(=O)Nc2cccc3c2C2CCCCN2C3=O)cs1 (stereo not drawn)      > 10000 nM
2  CNc1nc(Nc2ccc(C(=O)N3CC[C@@H](N4CCOCC4)C3)c3c2OCC3)nc2[nH]cc(C(F)(F)F)c12        < 100 nM

So the reported IC50 for COc1cc(P2(=O)CCN(C3CC3)CC2)ccc1Nc1nc(NCC2CCC2)c2c(C(F)(F)F)c[nH]c2n1 , on human GST-DYRK1A (Homo sapiens), turned out to be 301 to 1000 nM

So the reported IC50 for CCCNc1nc(Nc2ccc(C(=O)N3CC(CO)(CO)C3)c3c2OCCO3)nc2[nH]cc(C#N)c12 , on human GST-DYRK1A (Homo sapiens), turned out to be 301 to 1000 nM

So the reported IC50 for COCCNc1nc(Nc2ccc(C(=O)N3CCOCC3)c3c2OCCO3)nc2[nH]cc(C(N)=O)c12 , on human GST-DYRK1A (Homo sapiens), turned out to be 301 to 1000 nM

So the reported IC50 for c1ccc(-c2ccnc3ccc(-c4c[nH]c5ncccc45)cc23)cc1 , on human GST-DYRK1A (Homo sapiens), turned out to be < 10 nM

So the reported IC50 for CC(C)Nc1nc(Nc2ccc(C(=O)N3CCOCC3)c3c2OCCO3)nc2[nH]cc(C(F)(F)F)c12 , on human GST-DYRK1A (Homo sapiens), turned out to be 301 to 1000 nM

So the reported IC50 for CCNc1nc(Nc2ccc(S(=O)(=O)N3CCOCC3)c3c2OCCO3)nc2[nH]cc(C(F)(F)F)c12 , on human GST-DYRK1A (Homo sapiens), turned out to be 301 to 1000 nM
